All values here come from patent US7205295B2.

Molecular target: PI3Kγ (p101/p110γ protein) (Homo sapiens, UniProt P48736)
Construct: HA
Sequence (P48736 whole entry, species assumed): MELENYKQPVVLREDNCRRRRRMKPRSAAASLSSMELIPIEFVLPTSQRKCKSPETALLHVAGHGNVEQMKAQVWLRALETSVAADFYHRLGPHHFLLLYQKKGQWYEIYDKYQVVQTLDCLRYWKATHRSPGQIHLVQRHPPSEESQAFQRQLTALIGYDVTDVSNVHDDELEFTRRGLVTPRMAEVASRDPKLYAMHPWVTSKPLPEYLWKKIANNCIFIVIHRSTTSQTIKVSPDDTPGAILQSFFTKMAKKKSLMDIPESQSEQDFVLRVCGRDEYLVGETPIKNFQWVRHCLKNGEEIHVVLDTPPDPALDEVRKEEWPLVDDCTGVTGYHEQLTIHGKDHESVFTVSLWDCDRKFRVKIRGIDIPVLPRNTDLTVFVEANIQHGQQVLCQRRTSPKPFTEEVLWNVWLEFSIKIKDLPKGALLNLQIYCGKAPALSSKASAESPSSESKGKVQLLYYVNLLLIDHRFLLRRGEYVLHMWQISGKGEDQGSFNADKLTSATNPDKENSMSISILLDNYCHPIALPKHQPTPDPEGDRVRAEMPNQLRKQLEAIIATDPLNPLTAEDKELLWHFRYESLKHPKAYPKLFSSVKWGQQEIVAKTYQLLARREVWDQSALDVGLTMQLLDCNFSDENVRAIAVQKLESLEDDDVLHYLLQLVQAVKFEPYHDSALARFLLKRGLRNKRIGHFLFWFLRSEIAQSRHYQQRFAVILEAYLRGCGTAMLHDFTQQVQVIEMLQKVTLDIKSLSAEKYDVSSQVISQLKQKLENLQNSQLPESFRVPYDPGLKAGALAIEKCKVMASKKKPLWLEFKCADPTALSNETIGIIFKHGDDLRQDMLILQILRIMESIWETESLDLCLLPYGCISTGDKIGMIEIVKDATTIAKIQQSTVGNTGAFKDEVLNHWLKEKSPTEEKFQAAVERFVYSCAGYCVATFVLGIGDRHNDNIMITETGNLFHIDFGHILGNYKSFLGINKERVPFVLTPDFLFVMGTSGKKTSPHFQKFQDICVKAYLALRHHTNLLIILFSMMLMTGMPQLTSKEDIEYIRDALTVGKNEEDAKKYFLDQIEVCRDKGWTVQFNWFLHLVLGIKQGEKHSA
Sequence (Q8WYR1 whole entry partner, species assumed): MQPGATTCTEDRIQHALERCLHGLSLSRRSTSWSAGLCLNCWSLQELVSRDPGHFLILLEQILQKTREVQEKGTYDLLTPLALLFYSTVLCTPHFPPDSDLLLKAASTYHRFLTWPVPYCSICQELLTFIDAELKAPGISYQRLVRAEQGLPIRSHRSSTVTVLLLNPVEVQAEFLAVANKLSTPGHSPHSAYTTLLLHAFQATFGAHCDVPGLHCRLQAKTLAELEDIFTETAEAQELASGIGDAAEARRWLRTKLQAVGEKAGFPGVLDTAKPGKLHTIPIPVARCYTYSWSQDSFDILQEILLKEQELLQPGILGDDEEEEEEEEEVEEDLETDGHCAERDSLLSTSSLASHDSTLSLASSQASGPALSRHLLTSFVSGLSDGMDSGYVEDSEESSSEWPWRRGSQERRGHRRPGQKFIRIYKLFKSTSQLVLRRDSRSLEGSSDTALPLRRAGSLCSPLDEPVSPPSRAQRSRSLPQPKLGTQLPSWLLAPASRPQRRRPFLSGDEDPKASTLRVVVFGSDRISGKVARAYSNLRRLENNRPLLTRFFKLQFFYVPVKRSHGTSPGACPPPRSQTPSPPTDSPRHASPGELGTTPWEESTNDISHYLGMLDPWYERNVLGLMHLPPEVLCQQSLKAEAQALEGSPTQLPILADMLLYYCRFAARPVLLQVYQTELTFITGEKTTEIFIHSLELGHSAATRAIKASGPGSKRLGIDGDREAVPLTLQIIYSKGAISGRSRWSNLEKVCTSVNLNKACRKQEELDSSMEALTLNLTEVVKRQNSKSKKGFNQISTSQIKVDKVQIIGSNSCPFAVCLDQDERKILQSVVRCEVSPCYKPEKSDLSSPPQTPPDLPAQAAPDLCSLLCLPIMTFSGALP
Assay: PI3Kγ In Vitro Kinase Assay
Settings: purified recombinant p101/p110γ with G protein β1/γ2 subunits; 20 μM ATP, 25 μM PIP2; 20 minutes at room temperature
pIC50: −log10 of the molar value.
Threshold check on pIC50: at or above 8 gives MET, strictly below gives NOT MET.

>>> category_label("O=C1NC(=S)OC1=Cc1ccc2c(c1)N(Cc1ccc(Cl)c(C(F)(F)F)c1)C(=O)CO2 [Example 196]")
"NOT MET"
>>> category_label("CC(C)S(=O)(=O)c1cccc(CN2C(=O)COc3ccc(C=C4SC(=O)NC4=O)cc32)c1 [Example 252]")
"NOT MET"
>>> category_label("O=C1NC(=S)SC1=Cc1ccc2c(c1)N(Cc1ccc(C(F)(F)F)cc1)C(=O)CO2 [Example 158]")
"NOT MET"
>>> category_label("O=C1NC(=S)SC1=Cc1ccc2c(c1)N(CCCCc1ccccc1)C(=O)CO2 [Example 174]")
"MET"
>>> category_label("COc1cc(C=C2SC(=S)NC2=O)cc2c1OCC(=O)N2Cc1cc(C(C)(C)C)cc(C(C)(C)C)c1 [Example 51]")
"NOT MET"

Field: next compound
Exercise: Test whether the compound COc1ccc(CCCN2C(=O)COc3ccc(C=C4SC(=S)NC4=O)cc32)cc1 [Example 122] records pIC50 of 8 or higher.
Solution: MET
